Assay: Primary qHTS for inhibitors of nuclear receptor binding SET domain protein 2 (NSD2) in an isogenic RCH-ACV NSD2 p.E1099K mutant (9B) (AID 1645876); further: nearly all actives have a fitted effect of over 70% in size
Settings: RCH-ACV (leukaemia line) NSD2 E1099K (9B) viability, CellTiter-Glo, 72 h; series mostly up to 44.9 µM
Inconclusive results are not listed. Calls of active or inactive are those of the source. The call rests on the fitted dose curve; in most records, active means well fitted inhibition curve with a large enough effect; inconclusive means small, poorly fitted or top-dose-only effect; inactive means flat fitted curve, though single readings scatter.
Classes used: Y for active, N for inactive

{"compound": "C[C@@]12C(=O)N(c3ccc(C(=O)Nc4cccc5cccnc45)cc3)C(=O)[C@@H]1[C@@H]1C=C[C@H]2C1", "group": "N"}
{"compound": "C=CC(C)(C)C12CC3C(=O)N4C(CC5(C(C)(C)C=C)c6ccccc6NC45)C(=O)N3C1Nc1ccccc12 (stereo not given)", "group": "N"}
{"compound": "C=C(C)C(=O)O[C@H]1C[C@@](C)(O)C2(O)CCC(C)(/C=C3/OC(=O)C(COC)=C31)O2 (stereo not given in full)", "group": "Y"}
{"compound": "CN1CCC(c2cn(C)c3ccc(OS(=O)(=O)c4c(F)cccc4F)cc23)CC1", "group": "Y"}
{"compound": "C[C@@H]1COCCN1c1cc(=O)n2c(n1)N(Cc1cncc(Cl)c1)[C@H](C(F)(F)F)CC2", "group": "Y"}
{"compound": "COc1ccc(C(=O)O[C@H]2C=COC=C3C=C4C(=O)N(C)C(=S)C(=O)N4[C@@H]32)cc1Oc1cc(C=O)ccc1O", "group": "Y"}
{"compound": "CCNC1(C(N)=O)CN(c2nc(C)nc3c(-c4ccc(Cl)cc4)c(-c4ccccc4Cl)nn23)C1", "group": "Y"}
{"compound": "CC(C)c1ccc(-c2cc(=O)c3ccccc3o2)cc1", "group": "Y"}
{"compound": "C[C@@H]1O[C@@H](O[C@H]2[C@@H](OC(=O)[C@]34CCC(C)(C)CC3C3=CCC5[C@@]6(C)C[C@H](O)[C@H](O[C@@H]7O[C@H](CO)[C@@H](O)[C@H](O)[C@H]7O[C@@H]7OC[C@@H](O)[C@H](O)[C@H]7O)[C@@](C)(C(=O)O)C6CC[C@@]5(C)[C@]3(C)CC4)OC[C@H](O)[C@@H]2O)[C@H](O)[C@H](O)[C@H]1O[C@@H]1OC[C@@H](O)[C@H](O)[C@H]1O (stereo not given in full)", "group": "Y"}
{"compound": "CCc1ccccc1OC[C@@H](O)CN[C@H]1CCCc2ccccc21", "group": "Y"}
{"compound": "CC[N+]1(C/C2=C/CCCCCC2)CCC(NC(=O)C2c3cc(Cl)ccc3Oc3ccc(Cl)cc32)CC1 (stereo not given)", "group": "Y"}
{"compound": "O=C(Nc1nnc(-c2ccc3c(c2)OCCO3)o1)C1CCCCC1", "group": "N"}
{"compound": "COc1ccc(Oc2c(Cl)cnn(-c3cc(C)cc(C)c3)c2=O)cc1", "group": "Y"}
{"compound": "COCc1c(Cl)ccc2c1CC[C@H]2c1ncc[nH]1", "group": "N"}
{"compound": "C=C1C(=O)O[C@@H]2C3=C(C)CCC[C@]3(C)CC[C@@]12O", "group": "Y"}
{"compound": "O=C(c1ccc(OC(F)F)c(C#Cc2ccccn2)c1)N1Cc2cccnc2C1", "group": "N"}
{"compound": "O=C(NS(=O)(=O)c1ccc(Br)s1)c1ccc(Cl)cc1Cl", "group": "Y"}
{"compound": "C=C1CC[C@@H](O)[C@]2(C)C[C@H]3OC(=O)C(=C)[C@H]3CC12 (stereo not given in full)", "group": "Y"}
{"compound": "CC(C)C[C@@H]1NC(=O)[C@@H]2C[C@@]34C[C@@H]5[C@@]6(C)CCCC(C)(C)C6CC[C@@]5(C)N(c5ccccc53)[C@H]4N2C1=O (stereo not given in full)", "group": "Y"}
{"compound": "C/C(=C\\CCC(C)C1=CCC2(C)OC3=C(CC12)C(=O)C(O)CC3)CO (stereo not given)", "group": "N"}
{"compound": "COC1=CC(=O)C[C@@H](C)[C@@]12Oc1c(Cl)c(OC)cc(OC)c1C2=O", "group": "N"}
{"compound": "CCC(C)CNCC(=O)N1CCc2sccc2C1COc1cccc(C)c1 (stereo not given)", "group": "Y"}
{"compound": "COCCCNC(=O)c1ccc(Cn2c(=O)c3ccccc3n(Cc3ccc(C(C)C)cc3)c2=O)cc1", "group": "N"}
{"compound": "COc1ccc(NC(=O)c2ccc(C(=N)N(C)C)cc2)c(C(=O)Nc2ccc(Cl)cn2)c1", "group": "N"}
{"compound": "CCN(Cc1ccccc1)C(=O)Cn1c(=O)n(C)c2cnc(-c3ccccc3)nc21", "group": "N"}
{"compound": "C=C(C)C1CCC2(C(=O)O)CCC3(C)C(CCC4C5(C)C(C=O)C(O)C(C)(C)C5CCC43C)C12 (stereo not given)", "group": "N"}
{"compound": "CN(C)C(=O)C(=O)c1cn(C)c2cc(Cl)c(C(=O)N3CCC(Cc4ccc(F)cc4)CC3)cc12", "group": "Y"}
{"compound": "CCC/C=C\\C=C/CCc1cc(O)c([C@@H]2O[C@H](CO)[C@@H](O)[C@H](O)[C@H]2O)c(O)c1C(=O)OC", "group": "N"}
{"compound": "CCN1CCN(Cc2ccc(NC(=O)c3ccc(C)c(Oc4ncnc5[nH]c(C)cc45)c3)cc2C(F)(F)F)CC1", "group": "Y"}
{"compound": "Cn1c(=O)c(F)c(Nc2ccc(I)cc2F)c2c(=O)n(CC(O)CO)cnc21 (stereo not given)", "group": "Y"}
{"compound": "CS(=O)(=O)c1ccc(Oc2cc(F)cc(C#N)c2)c2c1[C@H](O)C(F)(F)C2", "group": "N"}
{"compound": "CC(=O)OC1CC(C)C2(CCC3(CC(=O)OC3O)O2)C2(C)CCCC(C)(C)C12 (stereo not given)", "group": "N"}
{"compound": "C=C(C)C1CC(O)C(C)C12CC(O)C1(C)OC1C2O (stereo not given)", "group": "Y"}
{"compound": "O=C(Nc1ccnc(NC(=O)C2CC2)c1)c1c(Cl)cccc1Cl", "group": "Y"}
{"compound": "COc1cc2c(cc1OC)CN(C(=O)/C=C/c1c(-c3ccccc3)n(C)c3ncccc13)CC2", "group": "Y"}

// provenance: PubChem BioAssay (NCATS)
